Test: yeast display, Sf9 membrane polyspecificity reagent, FACS + sequencing; frameworks hold sequencing errors

{"sequence-chain": "QVQLVESGGGLVQAGGSLRLSCAASGRTFSWYAMGWYRQAPGKERELVAAISSSGGSTYYADSVKGRFTISRDNAKNTVYLQMNSLKPEDTAVYYCAVRYYSSLSQRYYSWGQGTQVTVSS", "polyreactivity (PSR sort gate)": "high polyreactivity"}
{"sequence-chain": "QVQLVESGGGLVLAGGSLRLSCAASGRTFGYYTMGWYRQAPGKERELVAGISSAGSTNYADSVKGRFTLSRDYAKNTVYLQMNSLKPEDTAVYYCAARYQFYRYDSTYYYCGQGTQVTVSS", "polyreactivity (PSR sort gate)": "high polyreactivity"}

---

Assay: yeast display, Sf9 membrane polyspecificity reagent, FACS + sequencing; frameworks hold sequencing errors
readout-label: polyreactivity (PSR sort gate)

{"sequence-chain": "QVQLVESGGGLVQAGGSLRLSCAASGRTSRYAMGWSRQAPGKERELVAAITSSGGRTYYADSVKGRFTISRDNAKNTVYLQMNSLKPEDTAVYYCAAGYLLWRTWDYAAGHNYWGQGTQVTVSS", "reported-result": "high polyreactivity"}
{"sequence-chain": "QVQLVESGGGLVQAGGSLRLSCAASGNTFYPHAMGWYRQAPGTERELVAAISSTGGRTYYADSVKGRFTISRDNAKNTVYLQMNSLKPEDTAVYFCNTYACVAGDYWGQGTQVTVSS", "reported-result": "high polyreactivity"}

---

Assay: yeast display, Sf9 membrane polyspecificity reagent, FACS + sequencing; frameworks hold sequencing errors
readout-label: polyreactivity (PSR sort gate)

{"sequence-chain": "QLQLVESRGGLVQAGGSLRLSCAASGRIFFSNPMGWYIQAPGKDRELVASMTGGDDTNYADSVKGRFTISRDNAKNTVYLQMNSLKPEDTAVYYCAARAIPSYRWVYRFAPQYDYWGQGTQVTVSS", "polyreactivity (PSR sort gate)": "low polyreactivity"}
{"sequence-chain": "QVHLVESGGGLVQAGGSLRLSCAASGRIFRRYAMGWSRQAPGKERELVAAISSGGSTYYADSVKGRFTISRDNAKNTVYLQMNSLKPEDTAVYYCNAKVGAYLNYGYWGQGTQVTVSS", "polyreactivity (PSR sort gate)": "low polyreactivity"}
{"sequence-chain": "QVQLVESGGGLVQAGGSLRLSCAASGFTFASNAMGWYRQAPGKERELVAGISRTGTTTYYADSVKGRFTISRDNAKNTVYLQMNSLKPEDTAVYYCAKGSNSYLRYHYTYPYDYWGQGTQVTVSS", "polyreactivity (PSR sort gate)": "high polyreactivity"}
{"sequence-chain": "QVQLVESVGGLVQAGGSLRLSCAASGSIIYHYPMGWYRHAPGKEAELVAAIYTTAGDTYYADSVKGRFTISRDNAKNTVYLQMNCLKPEDTAVYYCNASSSYFYYVRYDHWGQGTQVTVSS", "polyreactivity (PSR sort gate)": "low polyreactivity"}
{"sequence-chain": "QVQLVESGGGLVQAGGSLRLSCAASGRTFVVYAMGWYRQAPGKERELVAVISFTRDSTFYADSVKGRFTISRDNAKNTVYLQMNSLKPEDTAVYYCAADFRRVFSKYSYYLYFEFDYWGQGTQVTVSS", "polyreactivity (PSR sort gate)": "low polyreactivity"}
{"sequence-chain": "QVQLVDSGGGLDQAGGSLRLSCAASGLTFAYNTMGWYRQAPGKERELVADISRSAGSTYYADSVKVRFTISRDNAKNTVFLQMNSLKPDDTAVYYCNAAPYYVLYLLWSSNTYDYWGQGTQVTVSS", "polyreactivity (PSR sort gate)": "high polyreactivity"}
{"sequence-chain": "QVQLVESGGGLVQAGGSLRLSCAASGSIFYSNAMGWYRQAPGKERELVAAITRRGGSTYYADSVKGRFTISRDNAKNTVYLQMNSLKPEDTAVYYCNRDPDIYIGYDYWGQGTQVTVSS", "polyreactivity (PSR sort gate)": "high polyreactivity"}
{"sequence-chain": "QVQLVESGGGIVQAGGSLRLRCAASGSTFKVYAIGWYRQATGKERELVAAISRGGRTYYADSVKGRFTISRDNAKNTVYLQMNSLKPEDTAVYYCAAGDQYKTRRNGYGYWGQGTQVTLSS", "polyreactivity (PSR sort gate)": "high polyreactivity"}

Which polyreactivity (PSR sort gate) is listed for LVHHVESGGGLVQAGRSLRLTCAASGGTFFSNAMGWYRQSPGKERELVAGITSGGRTYYADAVKGRFTISRDNAMNTVYLQMNSMKPEDTAVFYCAAERFTRKYNYWGQGTQVTLSS ?
high polyreactivity

Which polyreactivity (PSR sort gate) is listed for QVQLVESGGGLVQAGGSLRLSCAASGIIFGRYAMGWYRQAPGKERELVAAINASGGSTYYADSVKGRFTISRDNAKNTVYLQMNSLKPEDTAVYYCATRSTRSRTSGYYYWGQGTQVTVSS ?
high polyreactivity

Which polyreactivity (PSR sort gate) is listed for QVHLVESGGGLVQAGGSLRLSSAASGRIFKYYTMGWYRHAPGKERELVASITGTGGSTYYADSVKGRFTISRDNAKNTVYLQMNRLKPEDTAVYYCAARLSVLGGYRGRNAWRFDHWGQGTKVTVSS ?
high polyreactivity
